Here, each record is paired with measured pEC50 data.
Target: LRP1 cluster 4-Fc chimeric proteins (UniProt Q07954)
Experiment: ELISA, LRP1 cluster 4-Fc captured, biotin peptide detected with SA-HRP
Bridge positions count the residues as written; N and C are the ends. Square brackets hold non-standard residues; d marks the D form. Ends that are not written are not given here. * marks the point of attachment. Biotin = O=C1N[C@H]2[C@H](CS[C@H]2CCCCC(=O)*)N1; Nle = CCCC[C@H](N)C(=O)O
To interpret pEC50, take it as minus log10 of a concentration measured in moles per litre.

Query: Which measured pEC50 value corresponds to Ac-K(Biotin)GTPCTYKY[Nle]LAE[Nle]C (cysteine pairing not given here) [SEQUENCE 45] ?
Reply: 7.98

--- query ---
Query: Which measured pEC50 value corresponds to Ac-K(Biotin)GTPCTYKY[Nle]LAE[Nle]C (disulfide 5-15) [SEQUENCE 46] ?
Reply: 7.96
